tested_system: α1D Human Adrenergic Receptor (Homo sapiens)
Construct: The entire coding region of α1D (1719 bp); expressed in transfected cells
Sequence (P25100 1-572): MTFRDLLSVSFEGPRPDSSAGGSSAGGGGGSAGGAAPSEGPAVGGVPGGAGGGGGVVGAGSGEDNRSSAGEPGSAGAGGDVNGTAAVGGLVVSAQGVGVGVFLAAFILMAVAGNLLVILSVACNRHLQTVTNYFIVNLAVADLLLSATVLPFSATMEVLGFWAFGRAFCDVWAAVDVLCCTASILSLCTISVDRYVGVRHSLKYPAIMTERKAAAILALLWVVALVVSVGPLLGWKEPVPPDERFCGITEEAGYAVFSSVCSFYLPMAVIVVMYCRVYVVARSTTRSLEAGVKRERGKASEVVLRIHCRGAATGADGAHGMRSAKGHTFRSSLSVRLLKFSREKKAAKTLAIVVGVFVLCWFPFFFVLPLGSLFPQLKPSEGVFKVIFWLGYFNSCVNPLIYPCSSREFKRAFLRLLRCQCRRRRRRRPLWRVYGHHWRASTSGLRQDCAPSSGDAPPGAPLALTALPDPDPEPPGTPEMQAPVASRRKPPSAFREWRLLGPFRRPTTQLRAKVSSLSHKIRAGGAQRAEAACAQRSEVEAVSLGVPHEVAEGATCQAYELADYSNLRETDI
experiment_summary: Radioligand binding, [3H]prazosin displacement, cloned human α1D receptor (LM(tk-) cell membranes)
setup_conditions: [3H]prazosin 0.5 nM, 37° C., 20 min, read-out: hα1D pKi (converted)
Structures can show the parent of a compound that is named as a salt.
Please assign N whenever Ki is at or above 100 nM, and Y whenever it is below.

Confirm or reject: Ki of COC(=O)C1=C(C)NC(=O)N(C(=O)NCCN[C@H]2CC[C@](C#N)(c3ccccc3F)CC2)C1c1ccc(F)c(F)c1 (single isomer, unassigned; (+)) [Example 13, hydrochloride] lies strictly below 100 nM Y

Hi there! Is Ki for COCC1=C(C(=O)OC)C(c2ccc(F)c(F)c2)N(C(=O)NCCN[C@H]2CC[C@](C#N)(c3ccccn3)CC2)C(=O)N1 (single isomer, unassigned; (+)) [Example 14, hydrochloride] below 100 nM, do you know? N

Does COCC1=C(C(=O)OC)C(c2ccc(F)c(F)c2)N(C(=O)NCCN[C@H]2CC[C@H](c3ccccn3)CC2)C(=O)N1 (single isomer, unassigned; (+)) [Example 7, hydrochloride] have Ki strictly under 100 nM? N

Just wondering, is Ki of CCC1=C(C(N)=O)C(c2ccc(F)cc2F)N(C(=O)NCCN[C@H]2CC[C@](C#N)(c3ccccc3)CC2)C(=O)N1 (single isomer, unassigned; (+)) [Example 3, hydrochloride] below 100 nM? N

Take the compound COCC1=C(C(=O)OC)C(c2ccc(F)c(F)c2)N(C(=O)NCCN[C@H]2CC[C@@](C#N)(c3ccccc3)CC2)C(=O)N1 (single isomer, unassigned; (+)) [Example 5, hydrochloride] and say whether its Ki is less than 100 nM. N

Lab log: compare recorded Ki with 100 nM; is it strictly lower for COCC1=C(C(=O)OC)C(c2ccc(F)c(F)c2)N(C(=O)NCCN[C@H]2CC[C@](C(=O)OC)(c3ccccc3)CC2)C(=O)N1 (single isomer, unassigned; (+)) [Example 11, hydrochloride] ? N

###

tested_system: α1A Human Adrenergic Receptor (Homo sapiens, UniProt P35348)
Construct: The entire coding region of α1A (1401 bp); expressed in transfected cells
Sequence (P35348 whole entry): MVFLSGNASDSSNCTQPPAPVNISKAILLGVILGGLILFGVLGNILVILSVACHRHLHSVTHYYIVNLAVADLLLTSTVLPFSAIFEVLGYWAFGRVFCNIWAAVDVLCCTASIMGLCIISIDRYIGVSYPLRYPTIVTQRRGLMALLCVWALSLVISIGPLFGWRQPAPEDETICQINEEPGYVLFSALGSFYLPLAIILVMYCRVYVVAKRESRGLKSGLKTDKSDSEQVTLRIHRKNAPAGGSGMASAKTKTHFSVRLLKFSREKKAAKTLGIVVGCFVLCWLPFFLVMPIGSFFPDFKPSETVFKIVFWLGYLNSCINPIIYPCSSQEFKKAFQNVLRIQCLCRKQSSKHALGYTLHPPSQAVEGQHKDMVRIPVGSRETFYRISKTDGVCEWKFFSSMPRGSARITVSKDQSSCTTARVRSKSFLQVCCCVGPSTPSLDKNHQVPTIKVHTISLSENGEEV
experiment_summary: Radioligand binding, [3H]prazosin displacement, cloned human α1A receptor (LM(tk-) cell membranes)
setup_conditions: [3H]prazosin 0.5 nM, 37° C., 20 min, read-out: hα1A pKi (converted)
Where a name gives a salt, the structure may show the parent alone.
Classify: Y when Ki is strictly less than 0.5 nM; N when Ki is not.

Bench note: check whether COC(=O)C1=C(C)NC(=O)N(C(=O)NCCN[C@H]2CC[C@](C#N)(c3ccccc3F)CC2)C1c1ccc(F)c(F)c1 (single isomer, unassigned; (+)) [Example 13, hydrochloride] shows Ki below 0.5 nM Y

Regarding COCC1=C(C(=O)OC)C(c2ccc(F)c(F)c2)N(C(=O)NCCN[C@H]2CC[C@H](c3ccccn3)CC2)C(=O)N1 (single isomer, unassigned; (+)) [Example 7, hydrochloride] , kindly confirm whether its Ki is beneath 0.5 nM. N

Say whether its Ki is strictly beneath 0.5 nM. Entry: COCC1=C(C(=O)OC)C(c2ccc(F)c(F)c2)N(C(=O)NCCN[C@H]2CC[C@@](C#N)(c3ccccc3)CC2)C(=O)N1 (single isomer, unassigned; (+)) [Example 5, hydrochloride] Y

Below 0.5 nM on Ki? Entry COCC1=C(C(=O)OC)C(c2ccc(F)c(F)c2)N(C(=O)NCCN[C@H]2CC[C@](C#N)(c3ccccc3)CC2)C(=O)N1 (single isomer, unassigned; (+)) [Example 4, hydrochloride] Y

Field: below-cutoff. Rule: recorded Ki strictly less than 0.5 nM. Subject: COCC1=C(C(=O)OC)C(c2ccc(F)c(F)c2)N(C(=O)NCCN[C@H]2CC[C@](C(=O)OC)(c3ccccc3)CC2)C(=O)N1 (single isomer, unassigned; (+)) [Example 11, hydrochloride] Y

Would you kindly verify if Ki of COCC1=C(C(=O)OC)C(c2ccc(F)c(F)c2)N(C(=O)NCCN[C@H]2CC[C@](C#N)(c3ccccn3)CC2)C(=O)N1 (single isomer, unassigned; (+)) [Example 14, hydrochloride] is strictly less than 0.5 nM? N
